Target: N-Flo1p (Saccharomyces cerevisiae)
Test: Fluorescence titration of carbohydrates with nonglycosylated N-Flo1p
Format: binding
Settings: read-out: Equilibrium dissociation constant (KD) N-Flo1p; fluorescence titration, nonglycosylated N-Flo1p, this work (footnote a)
Observation Type: Kd (mM)
Hi! Could you send only the number? It should be in mM, unit omitted.

Recorded Kd for OC[C@H]1O[C@H](OC[C@H]2OC(O)[C@@H](O)[C@@H](O)[C@@H]2O)[C@@H](O)[C@@H](O)[C@@H]1O (some centres unmarked) on N-Flo1p (Saccharomyces cerevisiae) was 6.9

Record OC[C@H]1O[C@H](O[C@H]2[C@H](O)[C@@H](CO)OC(O)[C@H]2O)[C@@H](O)[C@@H](O)[C@@H]1O (some centres unmarked) / N-Flo1p (Saccharomyces cerevisiae), Kd recorded as 3.3

====

Biological target: N-Flo1p (Saccharomyces cerevisiae, UniProt P32768)
Sequence (P32768 23-271): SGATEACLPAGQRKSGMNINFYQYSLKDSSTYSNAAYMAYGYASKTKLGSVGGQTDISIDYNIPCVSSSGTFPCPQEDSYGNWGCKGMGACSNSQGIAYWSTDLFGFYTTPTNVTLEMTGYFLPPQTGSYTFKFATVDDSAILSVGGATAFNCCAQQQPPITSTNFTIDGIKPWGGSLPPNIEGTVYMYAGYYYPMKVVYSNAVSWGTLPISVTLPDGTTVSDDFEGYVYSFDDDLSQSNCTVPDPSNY
Experiment: Fluorescence titration of carbohydrates with nonglycosylated N-Flo1p
Format: binding
Observation Type: Kd (mM)
Enter your answer as a number in mM; do not include the unit.

Param item: OC[C@H]1OC(O)[C@@H](O)[C@@H](O)[C@@H]1O (stereo partly shown) ; param system: N-Flo1p (Saccharomyces cerevisiae, UniProt P32768); output Kd: 8.7
